Molecular target: zGlyRα4b homomer (Danio rerio, UniProt A0A8M1P2L1)
Construct: full-length cDNA in pCS2+, Kozak added; cRNA in Xenopus laevis oocytes; homopentamer
Sequence (A0A8M1P2L1 25-492): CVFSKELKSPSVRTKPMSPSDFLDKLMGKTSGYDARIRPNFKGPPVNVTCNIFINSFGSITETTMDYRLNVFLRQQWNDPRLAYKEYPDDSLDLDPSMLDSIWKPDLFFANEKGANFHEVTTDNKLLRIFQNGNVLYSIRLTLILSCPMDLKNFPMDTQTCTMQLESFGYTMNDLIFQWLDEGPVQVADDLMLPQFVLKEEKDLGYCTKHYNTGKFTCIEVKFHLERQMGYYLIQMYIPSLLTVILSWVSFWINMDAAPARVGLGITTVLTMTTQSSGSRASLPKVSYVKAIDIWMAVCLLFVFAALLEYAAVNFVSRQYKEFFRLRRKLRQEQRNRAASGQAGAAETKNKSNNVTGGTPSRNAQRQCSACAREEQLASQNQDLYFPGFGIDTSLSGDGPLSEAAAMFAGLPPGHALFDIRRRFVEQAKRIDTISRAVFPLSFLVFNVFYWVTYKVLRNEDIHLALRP
Assay: two-electrode voltage clamp, Xenopus oocytes
property: EC50 (µM)
State the answer as a number, implicitly in µM.

Under zGlyRα4b homomer (Danio rerio, UniProt A0A8M1P2L1): EC50 value of NCC(=O)O ?
134

Ref: paper PMC6130310
